# Lookup of reported IFNγ release [fold change over control], Donor D, 1 nM antibody keyed by entry
Biological target: T1, cell-bound CD73 (human, UniProt P21589 27-549)
T1 sequence (looked up): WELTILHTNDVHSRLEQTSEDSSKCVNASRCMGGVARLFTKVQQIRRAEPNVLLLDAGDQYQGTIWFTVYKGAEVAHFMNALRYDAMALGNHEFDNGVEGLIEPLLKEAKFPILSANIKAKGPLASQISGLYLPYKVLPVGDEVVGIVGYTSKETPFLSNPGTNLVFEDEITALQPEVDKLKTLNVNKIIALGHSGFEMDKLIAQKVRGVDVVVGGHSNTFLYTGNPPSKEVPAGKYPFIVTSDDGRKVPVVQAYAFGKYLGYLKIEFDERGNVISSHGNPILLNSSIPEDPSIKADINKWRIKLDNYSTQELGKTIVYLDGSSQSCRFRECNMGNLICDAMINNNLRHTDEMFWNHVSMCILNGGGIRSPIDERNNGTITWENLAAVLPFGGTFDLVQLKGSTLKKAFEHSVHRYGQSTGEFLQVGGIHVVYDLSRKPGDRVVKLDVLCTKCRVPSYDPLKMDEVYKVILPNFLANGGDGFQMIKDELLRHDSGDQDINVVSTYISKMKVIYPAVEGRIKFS
Experiment: cell-based or functional assay

// solved cases for IFNγ release [fold change over control], Donor D, 1 nM antibody follow
# input Check the records and state IFNγ release [fold change over control], Donor D, 1 nM antibody for C4 (antibody, human IgG1, kappa, L234A L235A, V domains shown, Humanized monoclonal antibody; also called C04; inventive anti-CD73 antibody C4) VH: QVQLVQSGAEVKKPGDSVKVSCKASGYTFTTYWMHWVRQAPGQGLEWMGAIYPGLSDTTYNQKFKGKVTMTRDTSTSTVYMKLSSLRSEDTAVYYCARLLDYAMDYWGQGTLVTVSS VL: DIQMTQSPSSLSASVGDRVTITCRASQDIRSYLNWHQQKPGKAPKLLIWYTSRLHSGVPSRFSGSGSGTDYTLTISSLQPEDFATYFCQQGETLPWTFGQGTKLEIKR
# output 13.7 fold

# input Check the records and state IFNγ release [fold change over control], Donor D, 1 nM antibody for B2 (antibody, human IgG1, kappa, L234A L235A, V domains shown, Humanized monoclonal antibody; also called anti-CD73 antibody B2) VH: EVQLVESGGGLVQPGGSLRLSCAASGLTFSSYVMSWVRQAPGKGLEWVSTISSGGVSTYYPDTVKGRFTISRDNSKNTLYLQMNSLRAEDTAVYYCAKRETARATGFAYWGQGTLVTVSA VL: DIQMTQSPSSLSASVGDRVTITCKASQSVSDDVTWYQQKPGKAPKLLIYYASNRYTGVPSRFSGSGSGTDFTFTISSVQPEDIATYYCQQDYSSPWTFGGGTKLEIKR
# output 17.7 fold

# input Check the records and state IFNγ release [fold change over control], Donor D, 1 nM antibody for C1 (antibody, human IgG1, kappa, L234A L235A, V domains shown, Humanized monoclonal antibody; also called anti-CD73 antibody C1) VH: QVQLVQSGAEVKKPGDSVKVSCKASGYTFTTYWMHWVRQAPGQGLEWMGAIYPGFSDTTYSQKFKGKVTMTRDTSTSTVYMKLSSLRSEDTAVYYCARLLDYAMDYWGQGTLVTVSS VL: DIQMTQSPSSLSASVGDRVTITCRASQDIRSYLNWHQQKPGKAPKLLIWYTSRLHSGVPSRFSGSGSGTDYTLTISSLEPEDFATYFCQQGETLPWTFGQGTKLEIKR
# output 20.9 fold

Please turn your attention to the following entry.
# input Check the records and state IFNγ release [fold change over control], Donor D, 1 nM antibody for C5 (antibody, human IgG1, kappa, L234A L235A, V domains shown, Humanized monoclonal antibody; also called anti-CD73 antibody C5) VH: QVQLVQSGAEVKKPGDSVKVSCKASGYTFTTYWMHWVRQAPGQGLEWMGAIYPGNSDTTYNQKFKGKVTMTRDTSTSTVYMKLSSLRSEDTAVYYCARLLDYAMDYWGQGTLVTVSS VL: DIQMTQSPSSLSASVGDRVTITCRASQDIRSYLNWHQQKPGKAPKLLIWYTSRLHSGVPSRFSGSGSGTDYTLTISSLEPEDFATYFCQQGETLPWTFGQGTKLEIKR
# output 22.9 fold

Origin of values: patent US20190352420A1
